Data provenance is patent US20230340012A1.

- Test system: cancer cells
- Assay Remarks: MTT cytotoxic assay of esterification products (Cytotoxicity activity)
- Assay type: cell-based, human
- Run Conditions: esterification products of core compound E4A with Isobutyryl chloride (Iso = Isobutyryl)

Compound	Cytotoxicity activity
CC1(C)CC2C3=CCC4C5(C)CCC(O)C(C)(COC(=O)c6ccccc6)C5CCC4(C)C3(C)CC(OC(=O)c3ccccc3)C2(CO)C(O)C1O (centres unmarked)	moderate
CC1(C)CC2C3=CCC4C5(C)CCC(O)C(C)(COC(=O)c6ccccc6)C5CCC4(C)C3(C)CC(OC(=O)c3ccccc3)C2(COC(=O)c2ccccc2)C(O)C1OC(=O)c1ccccc1 (centres unmarked)	weak
CC1(C)CC2C3=CCC4C5(C)CCC(OC(=O)c6ccccc6)C(C)(COC(=O)c6ccccc6)C5CCC4(C)C3(C)CC(O)C2(COC(=O)c2ccccc2)C(OC(=O)c2ccccc2)C1O (centres unmarked)	weak
CC1(C)CC2C3=CCC4C5(C)CCC(O)C(C)(COC(=O)c6ccccc6)C5CCC4(C)C3(C)CC(O)C2(CO)C(OC(=O)c2ccccc2)C1OC(=O)c1ccccc1 (centres unmarked)	moderate
CC1(C)CC2C3=CCC4C5(C)CCC(OC(=O)c6ccccc6)C(C)(CO)C5CCC4(C)C3(C)CC(O)C2(CO)C(OC(=O)c2ccccc2)C1OC(=O)c1ccccc1 (centres unmarked)	moderate

###

- Test system: cancer cells
- Assay Remarks: MTT cytotoxic assay of esterification products (Cytotoxicity activity)
- Assay type: cell-based, human
- Run Conditions: esterification products of core compound E4A with Myristoyl chloride (Myr = Myristoyl)

Compound	Cytotoxicity activity
CC1(C)CC2C3=CCC4C5(C)CCC(OC(=O)c6ccccc6)C(C)(COC(=O)c6ccccc6)C5CCC4(C)C3(C)CC(OC(=O)c3ccccc3)C2(COC(=O)c2ccccc2)C(OC(=O)c2ccccc2)C1O (centres unmarked)	weak
CC1(C)CC2C3=CCC4C5(C)CCC(O)C(C)(COC(=O)c6ccccc6)C5CCC4(C)C3(C)CC(OC(=O)c3ccccc3)C2(COC(=O)c2ccccc2)C(OC(=O)c2ccccc2)C1OC(=O)c1ccccc1 (centres unmarked)	weak
CC1(C)CC2C3=CCC4C5(C)CCC(O)C(C)(COC(=O)c6ccccc6)C5CCC4(C)C3(C)CC(O)C2(CO)C(O)C1OC(=O)c1ccccc1 (centres unmarked)	moderate
CC1(C)CC2C3=CCC4C5(C)CCC(OC(=O)c6ccccc6)C(C)(COC(=O)c6ccccc6)C5CCC4(C)C3(C)CC(O)C2(COC(=O)c2ccccc2)C(OC(=O)c2ccccc2)C1O (centres unmarked)	weak
CC1(C)CC2C3=CCC4C5(C)CCC(O)C(C)(COC(=O)c6ccccc6)C5CCC4(C)C3(C)CC(O)C2(CO)C(OC(=O)c2ccccc2)C1OC(=O)c1ccccc1 (centres unmarked)	moderate
CC1(C)CC2C3=CCC4C5(C)CCC(O)C(C)(CO)C5CCC4(C)C3(C)CC(OC(=O)c3ccccc3)C2(CO)C(OC(=O)c2ccccc2)C1OC(=O)c1ccccc1 (centres unmarked)	moderate
CC1(C)CC2C3=CCC4C5(C)CCC(O)C(C)(CO)C5CCC4(C)C3(C)CC(O)C2(COC(=O)c2ccccc2)C(O)C1OC(=O)c1ccccc1 (centres unmarked)	moderate
CC1(C)CC2C3=CCC4C5(C)CCC(O)C(C)(COC(=O)c6ccccc6)C5CCC4(C)C3(C)CC(OC(=O)c3ccccc3)C2(CO)C(O)C1O (centres unmarked)	moderate
CC1(C)CC2C3=CCC4C5(C)CCC(O)C(C)(CO)C5CCC4(C)C3(C)CC(OC(=O)c3ccccc3)C2(COC(=O)c2ccccc2)C(O)C1O (centres unmarked)	moderate
CC1(C)CC2C3=CCC4C5(C)CCC(O)C(C)(CO)C5CCC4(C)C3(C)CC(O)C2(COC(=O)c2ccccc2)C(OC(=O)c2ccccc2)C1O (centres unmarked)	moderate
CC1(C)CC2C3=CCC4C5(C)CCC(OC(=O)c6ccccc6)C(C)(COC(=O)c6ccccc6)C5CCC4(C)C3(C)CC(OC(=O)c3ccccc3)C2(COC(=O)c2ccccc2)C(O)C1OC(=O)c1ccccc1 (centres unmarked)	weak

###

- Test system: cancer cells
- Assay Remarks: MTT cytotoxic assay of esterification products (Cytotoxicity activity)
- Type: cell-based, human
- Run Conditions: MTT cytotoxic assay, isolated esterification products of E4A
Assay Endpoint: Cytotoxicity activity

Compound	Assay Result
CCC(CC)C(=O)OCC1(C)C(O)CCC2(C)C1CCC1(C)C2CC=C2C3CC(C)(C)C(OC(=O)C(CC)CC)C(OC(=O)C(CC)CC)C3(CO)C(O)CC21C (centres unmarked) [Compound E21]	moderate
CC(C)=CC(=O)OCC1(C)C(OC(=O)C=C(C)C)CCC2(C)C1CCC1(C)C2CC=C2C3CC(C)(C)C(O)C(OC(=O)C=C(C)C)C3(COC(=O)C=C(C)C)C(O)CC21C (centres unmarked) [Compound B14]	weak
C=CCCC(=O)OCC1(C)C(OC(=O)CCC=C)CCC2(C)C1CCC1(C)C2CC=C2C3CC(C)(C)C(OC(=O)CCC=C)C(O)C3(COC(=O)CCC=C)C(OC(=O)CCC=C)CC21C (centres unmarked) [Compound C17]	weak
CC(C)=CC(=O)OCC1(C)C(OC(=O)C=C(C)C)CCC2(C)C1CCC1(C)C2CC=C2C3CC(C)(C)C(O)C(OC(=O)C=C(C)C)C3(COC(=O)C=C(C)C)C(O)CC21C (centres unmarked) [Compound B9]	weak
C=CCCC(=O)OCC1(C)C(O)CCC2(C)C1CCC1(C)C2CC=C2C3CC(C)(C)C(OC(=O)CCC=C)C(O)C3(COC(=O)CCC=C)C(OC(=O)CCC=C)CC21C (centres unmarked) [Compound C13]	weak
C=CCCC(=O)OCC1(C)C(OC(=O)CCC=C)CCC2(C)C1CCC1(C)C2CC=C2C3CC(C)(C)C(O)C(O)C3(COC(=O)CCC=C)C(O)CC21C (centres unmarked) [Compound C6]	moderate
C=CCCC(=O)OCC12C(O)CC3(C)C(=CCC4C5(C)CCC(O)C(C)(CO)C5CCC43C)C1CC(C)(C)C(OC(=O)CCC=C)C2OC(=O)CCC=C (centres unmarked) [Compound C20]	moderate
CC(C)=CC(=O)OCC1(C)C(OC(=O)C=C(C)C)CCC2(C)C1CCC1(C)C2CC=C2C3CC(C)(C)C(O)C(OC(=O)C=C(C)C)C3(COC(=O)C=C(C)C)C(OC(=O)C=C(C)C)CC21C (centres unmarked) [Compound B18]	weak
CC=C(C)C(=O)OCC1(C)C(O)CCC2(C)C1CCC1(C)C2CC=C2C3CC(C)(C)C(OC(=O)C(C)=CC)C(O)C3(COC(=O)C(C)=CC)C(O)CC21C (centres unmarked) [Compound A4]	moderate
CC(C)=CC(=O)OCC12C(O)CC3(C)C(=CCC4C5(C)CCC(OC(=O)C=C(C)C)C(C)(CO)C5CCC43C)C1CC(C)(C)C(O)C2O (centres unmarked) [Compound B27]	moderate
CC(C)=CC(=O)OCC12C(O)CC3(C)C(=CCC4C5(C)CCC(O)C(C)(CO)C5CCC43C)C1CC(C)(C)C(O)C2OC(=O)C=C(C)C (centres unmarked) [Compound B26]	moderate

###

- Tested on: cancer cells
- Assay Remarks: MTT cytotoxic assay of esterification products (Cytotoxicity activity)
- Type: cell-based, human
- Run Conditions: esterification products of core compound E4A with Myristoyl chloride (Myr = Myristoyl)

Compound	Test Target	Cytotoxicity activity
CC1(C)CC2C3=CCC4C5(C)CCC(OC(=O)c6ccccc6)C(C)(COC(=O)c6ccccc6)C5CCC4(C)C3(C)CC(OC(=O)c3ccccc3)C2(COC(=O)c2ccccc2)C(OC(=O)c2ccccc2)C1OC(=O)c1ccccc1 (stereo not shown) [Compound K19]	cancer cells	none
CC1(C)CC2C3=CCC4C5(C)CCC(O)C(C)(COC(=O)c6ccccc6)C5CCC4(C)C3(C)CC(OC(=O)c3ccccc3)C2(COC(=O)c2ccccc2)C(OC(=O)c2ccccc2)C1O (stereo not shown) [Compound K12]	cancer cells	weak
CC1(C)CC2C3=CCC4C5(C)CCC(OC(=O)c6ccccc6)C(C)(COC(=O)c6ccccc6)C5CCC4(C)C3(C)CC(O)C2(COC(=O)c2ccccc2)C(OC(=O)c2ccccc2)C1OC(=O)c1ccccc1 (stereo not shown) [Compound K15]	cancer cells	weak

###

- Tested on: cancer cells
- Assay Remarks: MTT cytotoxic assay of esterification products (Cytotoxicity activity)
- Format: cell-based, human
- Run Conditions: esterification products of core compound E4A with Butyryl chloride (But = Butyryl)
Assay Endpoint: Cytotoxicity activity

Compound	Assay Result
CC1(C)CC2C3=CCC4C5(C)CCC(O)C(C)(COC(=O)c6ccccc6)C5CCC4(C)C3(C)CC(O)C2(CO)C(OC(=O)c2ccccc2)C1OC(=O)c1ccccc1 (centres unmarked)	moderate
CC1(C)CC2C3=CCC4C5(C)CCC(O)C(C)(COC(=O)c6ccccc6)C5CCC4(C)C3(C)CC(OC(=O)c3ccccc3)C2(COC(=O)c2ccccc2)C(OC(=O)c2ccccc2)C1O (centres unmarked)	weak
CC1(C)CC2C3=CCC4C5(C)CCC(O)C(C)(COC(=O)c6ccccc6)C5CCC4(C)C3(C)CC(OC(=O)c3ccccc3)C2(COC(=O)c2ccccc2)C(OC(=O)c2ccccc2)C1OC(=O)c1ccccc1 (centres unmarked)	weak
CC1(C)CC2C3=CCC4C5(C)CCC(O)C(C)(CO)C5CCC4(C)C3(C)CC(OC(=O)c3ccccc3)C2(COC(=O)c2ccccc2)C(O)C1O (centres unmarked)	moderate
CC1(C)CC2C3=CCC4C5(C)CCC(OC(=O)c6ccccc6)C(C)(COC(=O)c6ccccc6)C5CCC4(C)C3(C)CC(OC(=O)c3ccccc3)C2(COC(=O)c2ccccc2)C(OC(=O)c2ccccc2)C1OC(=O)c1ccccc1 (centres unmarked)	none
